Measured pIC50, listed per entry.
- targetOrSystem: Human CD73 (Homo sapiens, UniProt P21589)
- Construct: purchased R&D Systems; host or cells: CHO cells
- Sequence (P21589 27-549): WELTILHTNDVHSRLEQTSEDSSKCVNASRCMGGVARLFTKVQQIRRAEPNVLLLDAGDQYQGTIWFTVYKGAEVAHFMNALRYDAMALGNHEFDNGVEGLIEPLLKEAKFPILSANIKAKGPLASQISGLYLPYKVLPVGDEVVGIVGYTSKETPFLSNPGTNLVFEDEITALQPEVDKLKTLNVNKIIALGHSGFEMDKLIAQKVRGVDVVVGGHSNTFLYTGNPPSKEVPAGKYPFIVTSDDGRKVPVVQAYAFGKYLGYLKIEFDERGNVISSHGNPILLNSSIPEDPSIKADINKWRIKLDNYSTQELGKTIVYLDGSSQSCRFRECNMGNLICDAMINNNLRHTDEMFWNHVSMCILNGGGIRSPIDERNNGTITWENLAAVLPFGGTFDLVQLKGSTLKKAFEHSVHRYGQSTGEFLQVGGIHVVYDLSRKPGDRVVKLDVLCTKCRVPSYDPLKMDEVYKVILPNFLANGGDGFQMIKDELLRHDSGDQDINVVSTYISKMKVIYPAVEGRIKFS
- methodDescription: CD73 Enzyme Assay
- Type: biochemical
- conditionLabel: 0.25 nM hCD73, 25 μM AMP, kinetic read at 360 nm; read-out: CD73 Enzyme Assay IC50
pIC50: −log10 of the molar value.
readout: pIC50

compound="N#Cc1nc(NC2CC3CC3C2)c2cnn([C@@H]3O[C@H](CS(=O)(=O)CP(=O)(O)O)[C@@H](O)[C@H]3O)c2n1 (stereo partly shown)" endpointresult="7.00 to 8.00"
compound=C[C@@H](Nc1nc(C#N)nc2c1ccn2[C@@H]1O[C@H](COCP(=O)(O)O)[C@@H](O)[C@H]1O)c1ccc(F)cc1F endpointresult="> 8.00"
compound="N#Cc1nc(N2CC3CC3C2)c2cnn([C@@H]3O[C@H](CS(=O)(=O)CP(=O)(O)O)[C@@H](O)[C@H]3O)c2n1 (stereo partly shown)" endpointresult="7.00 to 8.00"
compound=C[C@@H](c1ccccc1)N(C)c1nc(Cl)nc2c1ccn2[C@@H]1O[C@H](COCP(=O)(O)O)[C@@H](O)[C@H]1O endpointresult="> 8.00"
compound=O=P(O)(O)COC[C@H]1O[C@@H](n2ccc3c(NC4CCCC4)nc(OCc4ccccn4)nc32)[C@H](O)[C@@H]1O endpointresult="6.00 to 7.00"
compound=C[C@@H](Nc1nc(Cl)nc2c1c(F)cn2[C@@H]1O[C@H](COCP(=O)(O)O)[C@@H](O)[C@H]1O)c1ccccc1 endpointresult="7.00 to 8.00"
compound=O=P(O)(O)COC[C@H]1O[C@@H](c2scc3c(N4CCCC4)nc(O)nc23)[C@H](O)[C@@H]1O endpointresult="< 6.00"
compound=C[C@@H](Nc1nc(Cl)nc2c1ccn2[C@@H]1O[C@H](CS(=O)(=O)CP(=O)(O)O)[C@@H](O)[C@H]1O)c1ccc(F)cc1 endpointresult="> 8.00"
compound=Cc1cc2c(NC3CCCC3)nc(Cl)nc2n1[C@@H]1O[C@H](COCP(=O)(O)O)[C@@H](O)[C@H]1O endpointresult="7.00 to 8.00"
compound=C[C@H](Nc1ncnc2c1ncn2[C@@H]1O[C@H](COCP(=O)(O)O)[C@@H](O)[C@H]1O)c1ccc(F)cc1 endpointresult="7.00 to 8.00"
compound=O=P(O)(O)COC[C@H]1O[C@@H](n2cnc3c(NCCCO)ncnc32)[C@H](O)[C@@H]1O endpointresult="< 6.00"
compound=N#Cc1nc(NC2CCC2)c2cnn([C@@H]3O[C@H](CS(=O)(=O)CP(=O)(O)O)[C@@H](O)[C@H]3O)c2n1 endpointresult="> 8.00"
compound=C[C@H](c1ccccc1)N(C)c1nc(Cl)nc2c1ccn2[C@@H]1O[C@H](COCP(=O)(O)OCOC(=O)C(C)(C)C)[C@@H](O)[C@H]1O endpointresult="> 8.00"

* * *

Measured pIC50, listed per entry.
- targetOrSystem: Human CD73 (Homo sapiens)
- Construct: purchased R&D Systems; host or cells: CHO cells
- methodDescription: CD73 Enzyme Assay
- Assay type: biochemical
- conditionLabel: 0.25 nM hCD73, 25 μM AMP, kinetic read at 360 nm; read-out: CD73 Enzyme Assay IC50
pIC50: −log10 of the molar value.
readout: pIC50

compound="O=P(O)(O)COC[C@H]1O[C@H](c2c[nH]c3c(N4CC5CCCC5C4)nc(Cl)nc23)[C@H](O)[C@@H]1O (stereo partly drawn)" targetorsystem="Human CD73 (Homo sapiens)" endpointresult="7.00 to 8.00"
compound=O=C(OCOP(=O)(COC[C@H]1O[C@@H](n2ccc3c(NC4CCCC4)nc(Cl)nc32)[C@H](O)[C@@H]1O)OCOC(=O)N1CCOCC1)N1CCOCC1 targetorsystem="Human CD73 (Homo sapiens)" endpointresult="6.00 to 7.00"
compound=N#Cc1nc(NC2CCCC2)c2cnn([C@@H]3O[C@H](CS(=O)(=O)CP(=O)(O)O)[C@@H](O)[C@H]3O)c2n1 targetorsystem="Human CD73 (Homo sapiens)" endpointresult="> 8.00"
compound=O=P(O)(O)COC[C@H]1O[C@@H](n2ccc3c(NC4CCCC4)nc(O)nc32)[C@H](O)[C@@H]1O targetorsystem="Human CD73 (Homo sapiens)" endpointresult="7.00 to 8.00"
compound=CC(C)Nc1nc(Cl)nc2c1ccn2[C@@H]1O[C@H](COCP(=O)(O)O)[C@@H](O)[C@H]1O targetorsystem="Human CD73 (Homo sapiens)" endpointresult="> 8.00"
compound=CNc1nc(C#N)nc2c1ccn2[C@@H]1O[C@H](COCP(=O)(O)O)[C@@H](O)[C@H]1O targetorsystem="Human CD73 (Homo sapiens)" endpointresult="6.00 to 7.00"
compound=C[C@@H](Nc1nc(C#N)nc2c1ccn2[C@@H]1O[C@H](COCP(=O)(O)O)[C@@H](O)[C@H]1O)c1ccc(F)cc1 targetorsystem="Human CD73 (Homo sapiens)" endpointresult="> 8.00"
compound=O=P(O)(O)CS(=O)(=O)C[C@H]1O[C@@H](n2ccc3c(NC4CCC(F)(F)CC4)nc(Cl)nc32)[C@H](O)[C@@H]1O targetorsystem="Human CD73 (Homo sapiens)" endpointresult="> 8.00"
compound=C[C@@H](Nc1nc(Cl)nc2c1ccn2[C@@H]1O[C@H](COCP(=O)(O)O)[C@@H](O)[C@H]1O)c1ccc(C(F)(F)F)cc1 targetorsystem="Human CD73 (Homo sapiens)" endpointresult="7.00 to 8.00"
compound=O=P(O)(O)COC[C@H]1O[C@@H](n2ccc3c(NC4CCC4)nc(Cl)nc32)[C@H](O)[C@@H]1O targetorsystem="Human CD73 (Homo sapiens)" endpointresult="> 8.00"
compound="O=P(O)(O)COC[C@H]1O[C@@H](c2csc3c(N4CC5CCCC5C4)nc(Cl)nc23)[C@H](O)[C@@H]1O (stereo partly drawn)" targetorsystem="Human CD73 (Homo sapiens)" endpointresult="> 8.00"
compound="N#Cc1nc(N2CC3CCCC3C2)c2ccn([C@@H]3O[C@H](COCP(=O)(O)O)[C@@H](O)[C@H]3O)c2n1 (stereo partly drawn)" targetorsystem="Human CD73 (Homo sapiens)" endpointresult="> 8.00"
compound=CNc1nc(Cl)nc2c1ccn2[C@@H]1O[C@H](COCP(=O)(O)O)[C@@H](O)[C@H]1O targetorsystem="Human CD73 (Homo sapiens)" endpointresult="6.00 to 7.00"
compound=O=P(O)(O)COC[C@H]1O[C@@H](n2ncc3c(NC4CC(F)(F)C4)nc(Cl)nc32)[C@H](O)[C@@H]1O targetorsystem="Human CD73 (Homo sapiens)" endpointresult="> 8.00"
compound=C[C@H](Nc1nc(C#N)nc2c1cnn2[C@@H]1O[C@H](CS(=O)(=O)CP(=O)(O)O)[C@@H](O)[C@H]1O)c1ccc(F)cc1 targetorsystem="Human CD73 (Homo sapiens)" endpointresult="7.00 to 8.00"
compound=CC(C)C#Cc1nc(NC2CCCC2)c2ccn([C@@H]3O[C@H](COCP(=O)(O)O)[C@@H](O)[C@H]3O)c2n1 targetorsystem="Human CD73 (Homo sapiens)" endpointresult="> 8.00"
compound=CC(C)Nc1nc(Cl)nc2c1ccn2[C@@H]1O[C@H](CS(=O)(=O)CP(=O)(O)O)[C@@H](O)[C@H]1O targetorsystem="Human CD73 (Homo sapiens)" endpointresult="7.00 to 8.00"
compound=O=P(O)(O)COC[C@H]1O[C@@H](n2ccc3c(N[C@@H]4CCNC4)nc(Cl)nc32)[C@H](O)[C@@H]1O targetorsystem="Human CD73 (Homo sapiens)" endpointresult="6.00 to 7.00"
compound=CC(C)(C)C#Cc1nc(NC2CCCC2)c2ccn([C@@H]3O[C@H](COCP(=O)(O)O)[C@@H](O)[C@H]3O)c2n1 targetorsystem="Human CD73 (Homo sapiens)" endpointresult="6.00 to 7.00"
compound=O=P(O)(O)COC[C@H]1O[C@@H](n2ccc3c(N[C@@H](CO)c4ccccc4)nc(Cl)nc32)[C@H](O)[C@@H]1O targetorsystem="Human CD73 (Homo sapiens)" endpointresult="7.00 to 8.00"
compound=C[C@@H](Nc1nc(C#N)nc2c1ccn2[C@@H]1O[C@H](COCP(=O)(O)O)[C@@H](O)[C@H]1O)c1ccc(C2CC2)cc1 targetorsystem="Human CD73 (Homo sapiens)" endpointresult="> 8.00"
compound="O=P(O)(O)C(c1ccccc1)S(=O)(=O)C[C@H]1O[C@@H](n2cnc3c(NCc4ccccc4)ncnc32)[C@H](O)[C@@H]1O (stereo partly drawn)" targetorsystem="Human CD73 (Homo sapiens)" endpointresult="< 6.00"
compound=C[C@H](c1ccccc1)N(C)c1nc(Cl)nc2c1ccn2[C@@H]1O[C@H](COCP(=O)(O)O)[C@@H](O)[C@H]1O targetorsystem="Human CD73 (Homo sapiens)" endpointresult="> 8.00"
compound=C[C@@H](Nc1nc(Cl)nc2c1ncn2[C@@H]1O[C@H](COCP(=O)(O)O)[C@@H](O)[C@H]1O)c1ccccc1 targetorsystem="Human CD73 (Homo sapiens)" endpointresult="7.00 to 8.00"

Cited source for all entries: patent US11591355B2
